- tested system: PI3Kγ (p110γ) Recombinant Human Protein (Homo sapiens (Human))
- Sequence (P48736 whole entry): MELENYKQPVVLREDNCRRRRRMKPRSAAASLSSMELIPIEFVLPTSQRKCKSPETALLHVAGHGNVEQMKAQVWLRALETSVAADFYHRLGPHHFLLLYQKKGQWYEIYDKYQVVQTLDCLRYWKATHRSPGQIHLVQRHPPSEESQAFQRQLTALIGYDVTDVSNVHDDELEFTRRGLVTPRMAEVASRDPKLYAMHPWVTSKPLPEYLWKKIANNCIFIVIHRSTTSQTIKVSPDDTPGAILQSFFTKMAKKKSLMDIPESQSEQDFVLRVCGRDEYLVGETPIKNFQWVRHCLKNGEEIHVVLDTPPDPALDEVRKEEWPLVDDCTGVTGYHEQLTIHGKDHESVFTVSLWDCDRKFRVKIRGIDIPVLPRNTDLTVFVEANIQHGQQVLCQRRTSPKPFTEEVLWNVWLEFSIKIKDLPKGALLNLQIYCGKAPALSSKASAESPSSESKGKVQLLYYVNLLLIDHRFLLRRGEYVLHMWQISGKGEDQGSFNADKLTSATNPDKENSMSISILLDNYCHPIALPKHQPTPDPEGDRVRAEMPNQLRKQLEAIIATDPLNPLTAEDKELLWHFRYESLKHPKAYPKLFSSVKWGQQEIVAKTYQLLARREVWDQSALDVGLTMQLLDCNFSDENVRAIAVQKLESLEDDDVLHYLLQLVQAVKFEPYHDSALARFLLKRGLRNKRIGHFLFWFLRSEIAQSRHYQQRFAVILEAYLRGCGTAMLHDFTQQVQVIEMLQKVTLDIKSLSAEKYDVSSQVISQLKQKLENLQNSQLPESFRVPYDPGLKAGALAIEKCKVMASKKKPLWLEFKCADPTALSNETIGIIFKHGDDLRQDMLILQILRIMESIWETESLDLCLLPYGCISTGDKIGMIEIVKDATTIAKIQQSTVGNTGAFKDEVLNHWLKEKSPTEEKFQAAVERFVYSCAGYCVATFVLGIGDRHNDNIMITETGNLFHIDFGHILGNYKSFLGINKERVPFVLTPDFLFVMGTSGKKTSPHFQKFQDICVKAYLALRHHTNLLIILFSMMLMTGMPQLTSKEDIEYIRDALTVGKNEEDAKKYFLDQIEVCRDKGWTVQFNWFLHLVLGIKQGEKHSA
- measurement notes: PI3K-γ Scintillation Proximity Assay
- Type: biochemical
- measurement context: Table A4; 2 μM ATP, 20 μM PIP2
pIC50: −log10 of the molar value. Structures can show the parent of a compound that is named as a salt.
endpoint: pIC50

[[record]]
molecule = "Cc1ccc(C(O)(C(N)=O)C(F)(F)F)cc1-c1cnc(N)c(C2CN(S(=O)(=O)c3cnn(C)c3)C2)n1 (single isomer, unassigned) [Example 107, trifluoroacetate salt]"
tested_system = "PI3Kγ (p110γ) Recombinant Human Protein (Homo sapiens (Human))"
endpoint = "pIC50"
measured = "> 7.00"

[[record]]
molecule = "Cc1ccc(C(O)(C(N)=O)C(F)(F)F)cc1-c1cnc(N)c(C2CC(C(=O)NC(C)C)C2)n1 (single isomer, unassigned) [Example 111]"
tested_system = "PI3Kγ (p110γ) Recombinant Human Protein (Homo sapiens (Human))"
endpoint = "pIC50"
measured = "> 7.00"

[[record]]
molecule = "Cc1ccc(C(O)(C(N)=O)C(F)(F)F)cc1-c1cnc(N)c(C2CC(C(=O)NC(C)C)C2)n1 (single isomer, unassigned) [Example 110]"
tested_system = "PI3Kγ (p110γ) Recombinant Human Protein (Homo sapiens (Human))"
endpoint = "pIC50"
measured = "> 6.30"

[[record]]
molecule = "CCOC(=O)C1CC(c2nc(-c3cc(C(O)(C(N)=O)C(F)(F)F)ccc3C)cnc2N)C1 (single isomer, unassigned) [Example 109]"
tested_system = "PI3Kγ (p110γ) Recombinant Human Protein (Homo sapiens (Human))"
endpoint = "pIC50"
measured = "> 7.00"

[[record]]
molecule = "CCOC(=O)C1CC(c2nc(-c3cc(C(O)(C(N)=O)C(F)(F)F)ccc3C)cnc2N)C1 (single isomer, unassigned) [Example 108]"
tested_system = "PI3Kγ (p110γ) Recombinant Human Protein (Homo sapiens (Human))"
endpoint = "pIC50"
measured = "> 6.30"


Data credit: patent US11046658B2
